# measured-on: dopamine transporter (DAT) (Mus musculus, UniProt Q61327)
# Sequence (Q61327 whole entry): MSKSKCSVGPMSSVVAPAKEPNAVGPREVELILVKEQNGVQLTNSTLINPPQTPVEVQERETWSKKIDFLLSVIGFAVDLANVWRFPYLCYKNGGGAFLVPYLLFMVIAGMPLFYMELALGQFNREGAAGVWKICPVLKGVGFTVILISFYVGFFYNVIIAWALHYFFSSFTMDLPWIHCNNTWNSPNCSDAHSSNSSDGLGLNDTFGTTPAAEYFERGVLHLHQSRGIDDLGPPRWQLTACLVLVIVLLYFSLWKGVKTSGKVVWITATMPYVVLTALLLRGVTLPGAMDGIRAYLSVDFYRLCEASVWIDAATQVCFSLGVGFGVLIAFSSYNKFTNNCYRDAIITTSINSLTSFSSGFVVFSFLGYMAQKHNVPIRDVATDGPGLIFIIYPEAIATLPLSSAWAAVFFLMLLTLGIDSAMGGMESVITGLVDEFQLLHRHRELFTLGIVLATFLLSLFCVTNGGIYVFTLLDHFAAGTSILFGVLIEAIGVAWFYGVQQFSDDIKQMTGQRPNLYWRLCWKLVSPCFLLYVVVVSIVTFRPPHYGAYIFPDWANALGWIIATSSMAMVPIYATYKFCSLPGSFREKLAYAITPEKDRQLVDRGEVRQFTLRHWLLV
# maps each entry to its Ki

Below: 2 compounds and their reported Ki.
Q. Name the recorded Ki for c1ccc(CCCN2CCN(CCc3ccc4c(c3)OCO4)CC2)cc1 [compound 7] .
A. ~2000 nM

Q. What about this compound? COc1ccc(CCN2CCN(CCCc3ccccc3)CC2)cc1OC [SA4503]
A. 12700 nM

Lab note: next compound to report on.
Q. Name the recorded Ki for CCCOc1ccc(CCN2CCN(CCCc3ccccc3)CC2)cc1OC [compound 1] .
A. ~2000 nM
